Target: T1, SHIP SH2 (SH2 domain from human SHIP-1) (human, UniProt Q92835 5-101)
T1 construct: SHIP-1, human, single SH2 domain; also called hSHIP SH2; SHIP-1 SH2 domain; source: E. coli BL21(DE3)pLysS, purified (Co2+ or Ni2+ column, size exclusion chromatography)
T1 sequence (looked up): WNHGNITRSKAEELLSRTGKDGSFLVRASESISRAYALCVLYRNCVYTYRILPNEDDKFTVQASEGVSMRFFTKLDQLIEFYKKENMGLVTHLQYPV
Assay: SPR; biotinylated phosphopeptides immobilised on streptavidin chip (about 25 RU single, 50 RU tandem motifs); soluble recombinant protein injected; 37°C; HBS-EP; equilibrium binding (Table 4; same-day purification not given)
Conditions: both partners purified
Non-standard residues stand in square brackets, D forms with d. No end group written: not given here. *: point of attachment. Biotin = O=C1N[C@H]2[C@H](CS[C@H]2CCCCC(=O)*)N1; pY = N[C@@H](Cc1ccc(OP(=O)(O)O)cc1)C(=O)O
measurement-name: pKd
# reply with the number alone; pKd is -log10 of concentration in mol/L

What does the data say about its pKd? Entry: ENTITYSLLMH (also: phosphorylated, site not given here, biotinylated, site not given here) [FCRγIIb (CD32) phosphopeptide]
6.33

What does the data say about its pKd? Entry: Biotin-EFLTI[pY]EDVKD (CD244 (SLAMF4), human, cytoplasmic ITSM1; also called SLAMF4 ITSM1; source: synthetic peptide (Peptide Protein Research Ltd)) [CD244 ITSM1 phosphopeptide (Biotin-EFLTIpYEDVKD)]
4.96
